Each entry below lists one item and its recorded Binding (FOI) value.
target: T1, human CD3 expressed on cells (Jurkat cells; human primary T cells) (human, UniProt P07766 23-207; P04234 22-171; P09693 23-182); assay: flow cytometry, 25 nM, human primary T cells
T1 construct: whole, on cells
T1 sequence (P07766 23-207, chain 1 of 3): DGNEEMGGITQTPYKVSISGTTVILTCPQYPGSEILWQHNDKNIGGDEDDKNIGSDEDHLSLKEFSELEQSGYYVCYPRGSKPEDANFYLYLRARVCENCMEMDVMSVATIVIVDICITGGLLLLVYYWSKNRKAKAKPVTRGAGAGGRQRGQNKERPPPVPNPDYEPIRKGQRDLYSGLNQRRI
T1 sequence (P04234 22-171, chain 2 of 3): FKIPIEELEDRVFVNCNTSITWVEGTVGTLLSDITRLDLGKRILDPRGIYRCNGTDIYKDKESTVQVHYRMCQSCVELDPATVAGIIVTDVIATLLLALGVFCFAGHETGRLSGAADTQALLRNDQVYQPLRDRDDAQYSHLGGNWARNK
T1 sequence (P09693 23-182, chain 3 of 3): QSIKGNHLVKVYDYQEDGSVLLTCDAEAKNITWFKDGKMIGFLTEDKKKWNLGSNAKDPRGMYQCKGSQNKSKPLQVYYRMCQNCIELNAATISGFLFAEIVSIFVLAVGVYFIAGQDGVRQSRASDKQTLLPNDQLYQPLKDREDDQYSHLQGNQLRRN
Number only, in FOI; omit the unit.

In the examples that follow, each entry is paired with its recorded Binding (FOI).
BINDER	Binding (FOI)
mAb 221 (antibody, V domains shown, VH/VL only) VH: QVQLVESGGGVVQPGGSLRLSCAASGFTFSGYGMHWVRQAPGKGLEWVAIIWYNGRKTYYAESVKGRFTISRDNSKNTLSLQMNSLRVEDTAVYYCTAGQGYNWFDPWGQGTLVTVSS VL: EIVMTQSPATLSVSPGERATLSCRASQSVSSNLAWYQQKPGQAPRLLIYGASTRATGIPARFSGSGSGTEFTLTISSLQSEDFAVYYCQQFNAWPLTFGGGTKMEIK	239
mAb 257 (antibody, V domains shown, VH/VL only; the printed VH holds a letter U) VH: QVQLQQSGPGLVKPSQTLSLTCAISGDSVSSNYASWNWIRQSPSRGLEWLGRTYYRSKWYNDFAVSVRSRVTINADTSKNQFSLHLSSVTPEDTAIYFCAREANGRGYFYYMDVWGKGTTVTVSS VL: EIVLTQSPDFQSVTPKEKVTITCRASQSIGSSLHWYQQKPDQSPKLLIKYASQSISGVPSRFSGSGSGTVFTLTINSLEAEDAAAYFCHQSSGSPHTFGGGTKVEIK	77.7

Looking up mAb 209 (antibody, V domains shown, VH/VL only) VH: QVQLVESGGGVVQPGRSLRLSCAASGFTFSGYGMHWVRQAPGKGLEWVAIIYYNGKKEYYADSVKGRFTVSRDNSKNMLYLQMNSLRAEDTAVYYCTRGEGYNWFDPWGQGTLVTVSS VL: EIVMTQSPATLSVSPGERATLSCRASQTVSSNLAWYQQKPGQAPRLLIYGASTRATGIPARFSGSGSGTEFTLTISSLQSEDFAVYYCKQYNNRPLTFGGGTKVEIK , I see its Binding (FOI) listed as 228
